# subject_of_test: human HDAC4 (Homo sapiens)
# Construct: made in house; host or cells: 293T cells (transient transfection, anti-FLAG immunoprecipitation, FLAG peptide elution)
# assay_text: HDAC-inhibiting activity, coumarin-labeled acetylated histone peptide assay
# Type: biochemical
# measurement_setup: human HDAC4 from transfected 293T cells; 37° C., 30 minutes; read-out: HDAC-inhibiting activity IC50 HDAC4
pIC50: −log10 of the molar value.
measured_property: pIC50

Please supply the value of reported pIC50 for the item CC1(C)NC(=O)[C@H](CCCCCSCc2ccncc2)NC(=O)[C@H]2CCCN2C(=O)[C@H](Cc2ccccc2)NC1=O [Ky-26]
7.60

a. COCC(=O)CSCCCCC[C@@H]1NC(=O)[C@H]2CCCN2C(=O)[C@H](Cc2ccccc2)NC(=O)C(C)(C)NC1=O [Ky-85]
b. CN(C)CC(=O)CCCCC[C@@H]1NC(=O)[C@H]2CCCN2C(=O)[C@H](Cc2ccccc2)NC(=O)C(C)(C)NC1=O [Ky-14, cyclo(-L-Ae9(Dmamk)-Aib-L-Phe-D-Pro-)]
Which record shows the lower pIC50: the first, a , or the second, b ? Provide the label of your selected option as the answer.
b
(b: 4.75, a: 7.11)

====

# subject_of_test: human HDAC4 (Homo sapiens, UniProt P56524)
# Construct: made in house; host or cells: 293T cells (transient transfection, anti-FLAG immunoprecipitation, FLAG peptide elution)
# Sequence (P56524 whole entry): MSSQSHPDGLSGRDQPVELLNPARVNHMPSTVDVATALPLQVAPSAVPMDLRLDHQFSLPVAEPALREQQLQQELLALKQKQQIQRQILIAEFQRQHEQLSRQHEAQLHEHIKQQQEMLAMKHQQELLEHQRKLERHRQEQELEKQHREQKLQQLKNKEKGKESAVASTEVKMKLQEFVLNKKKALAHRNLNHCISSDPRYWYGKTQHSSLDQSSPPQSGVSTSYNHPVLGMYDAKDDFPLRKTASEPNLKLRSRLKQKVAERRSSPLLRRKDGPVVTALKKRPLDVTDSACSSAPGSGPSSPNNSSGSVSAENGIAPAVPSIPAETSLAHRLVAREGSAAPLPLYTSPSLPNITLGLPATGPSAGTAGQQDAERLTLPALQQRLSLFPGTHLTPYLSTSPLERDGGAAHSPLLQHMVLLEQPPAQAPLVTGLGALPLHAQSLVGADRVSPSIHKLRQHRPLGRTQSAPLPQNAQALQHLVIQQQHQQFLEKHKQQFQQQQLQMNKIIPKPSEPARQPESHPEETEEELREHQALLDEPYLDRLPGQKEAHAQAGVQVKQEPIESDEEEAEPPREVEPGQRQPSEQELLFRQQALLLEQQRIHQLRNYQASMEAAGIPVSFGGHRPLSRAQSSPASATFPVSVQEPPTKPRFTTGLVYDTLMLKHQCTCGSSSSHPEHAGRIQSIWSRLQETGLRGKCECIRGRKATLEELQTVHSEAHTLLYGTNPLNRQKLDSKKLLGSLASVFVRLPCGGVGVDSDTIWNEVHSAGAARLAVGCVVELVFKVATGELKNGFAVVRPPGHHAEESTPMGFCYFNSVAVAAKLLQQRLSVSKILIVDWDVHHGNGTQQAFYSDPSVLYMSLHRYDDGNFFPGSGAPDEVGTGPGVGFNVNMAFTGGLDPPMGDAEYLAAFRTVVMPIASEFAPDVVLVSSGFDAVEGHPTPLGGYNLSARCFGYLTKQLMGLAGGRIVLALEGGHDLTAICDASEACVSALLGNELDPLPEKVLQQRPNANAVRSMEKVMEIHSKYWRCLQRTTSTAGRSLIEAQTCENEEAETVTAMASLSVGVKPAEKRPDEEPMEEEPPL
# Sequence (O15379 whole entry, further chain): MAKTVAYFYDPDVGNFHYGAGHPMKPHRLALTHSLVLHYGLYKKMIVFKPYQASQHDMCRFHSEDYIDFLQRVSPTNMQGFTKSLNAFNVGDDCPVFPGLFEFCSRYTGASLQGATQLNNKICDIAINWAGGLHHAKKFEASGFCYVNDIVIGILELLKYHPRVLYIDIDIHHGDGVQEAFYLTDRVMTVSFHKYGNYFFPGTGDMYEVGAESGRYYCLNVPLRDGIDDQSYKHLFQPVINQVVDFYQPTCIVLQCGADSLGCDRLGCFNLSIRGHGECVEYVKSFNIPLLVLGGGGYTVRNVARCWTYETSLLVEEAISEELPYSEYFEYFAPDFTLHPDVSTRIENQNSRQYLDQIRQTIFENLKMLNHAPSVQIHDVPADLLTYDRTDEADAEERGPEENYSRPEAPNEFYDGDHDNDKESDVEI
# assay_text: HDAC-inhibiting activity, coumarin-labeled acetylated histone peptide assay
# Format: biochemical
# measurement_setup: human HDAC4 from transfected 293T cells; 37° C., 30 minutes; read-out: HDAC-inhibiting activity IC50 HDAC4
pIC50: −log10 of the molar value.
measured_property: pIC50

Please review the following examples before continuing.
Report value only: pIC50, human HDAC4 (Homo sapiens, UniProt P56524), CC1(C)NC(=O)[C@H](CCCCCC(=O)COCC(F)(F)F)NC(=O)[C@H]2CCCN2C(=O)[C@H](Cc2ccccc2)NC1=O [Ky-60, cyclo(-L-Ae9(Tfemk)-Aib-L-Phe-D-Pro-)]
6.34

Lab note: human HDAC4 (Homo sapiens, UniProt P56524) assay, enter pIC50 for CC1(C)NC(=O)[C@H](CCCCCC(=O)CBr)NC(=O)[C@H]2CCCN2C(=O)[C@H](Cc2ccccc2)NC1=O [Ky-12, cyclo(-L-Ae9(Bmk)-Aib-L-Phe-D-Pro-)] here
7.22

Report pIC50 under test system human HDAC4 (Homo sapiens, UniProt P56524) for CC1(C)NC(=O)[C@H](CCCCCSCC(=O)C(F)(F)F)NC(=O)[C@H]2CCCN2C(=O)[C@H](Cc2ccccc2)NC1=O .
6.44

Name the recorded pIC50 of CC1(C)NC(=O)[C@H](CCCCSCC(=O)C(F)(F)F)NC(=O)[C@H]2CCCN2C(=O)[C@H](Cc2ccccc2)NC1=O , assay system human HDAC4 (Homo sapiens, UniProt P56524).
4.74

I. CCOCC(=O)CCCCC[C@@H]1NC(=O)[C@H]2CCCN2C(=O)[C@H](Cc2ccccc2)NC(=O)C(C)(C)NC1=O [Ky-10, cyclo(-L-Ae9(Emk)-Aib-L-Phe-D-Pro-)]
II. CC1(C)NC(=O)[C@H](CCCCCSCc2ccccn2)NC(=O)[C@H]2CCCN2C(=O)[C@H](Cc2ccccc2)NC1=O
III. CC1(C)NC(=O)[C@H](CCCCCCSCC(=O)C(F)(F)F)NC(=O)[C@H]2CCCN2C(=O)[C@H](Cc2ccccc2)NC1=O
Ordering criterion: pIC50; begin with the maximum. Reply with the labels, ordered as the question asks.
II, I, III

P. COCC(=O)CCCCC[C@@H]1NC(=O)[C@H]2CCCN2C(=O)[C@H](Cc2ccccc2)NC(=O)C(C)(C)NC1=O [Ky-9, cyclo(-L-Ae9(Mmk)-Aib-L-Phe-D-Pro-)]
Q. CSCC(=O)CCCCC[C@@H]1NC(=O)[C@H]2CCCN2C(=O)[C@H](Cc2ccccc2)NC(=O)C(C)(C)NC1=O [Ky-13, cyclo(-L-Ae9(Mtmk)-Aib-L-Phe-D-Pro-)]
I'd appreciate it if you could identify which of P and Q has the greater pIC50. Use the label to indicate which entry you chose.
P
